The entries below are paired with their reported Huh7_HIBIT-HSD17β13_DC50 GMean Asymptote Maximum.
Test system: HiBiT-HSD17β13 fusion protein (N-terminal HiBiT-tagged HSD17β13 isoform D) in Huh7 HiBiT-HSD17β13 OE cells
Assay Name: Whole-cell Huh7-HSD17B13 HiBiT assay (degrader potency and maximal efficacy, luminescence readout)
Type: cell-based, human
Condition Set: 24 hour incubation, max. concentration 1 μM, geometric mean, * = geometric mean for all forms tested (parent and salt forms)
Counter-ions that a name gives are not always drawn.
Give your result in % as a bare value.

Answered examples (3):
1) O=C1CCN(c2cnc3cc(CCCN4CCN(c5ccc6cn([C@H]7CC[C@H](CNC(=O)c8cc(F)c(O)c(F)c8F)CC7)nc6c5)CC4)ccn23)C(=O)N1 [Example 47, trifluoroacetate salt] : 78
2) Cn1c(=O)n(C2CCC(=O)NC2=O)c2ccc(CCCN3CCN(c4cccc(-c5nc(C67CCC(CNC(=O)c8cc(F)c(O)c(F)c8F)(CC6)CC7)no5)c4)CC3)cc21 (racemic) : 81
3) Cc1ccc(C(=O)N2CCC3(CCN(c4ncc(-c5ccc6cn([C@H]7CC[C@H](CNC(=O)c8cc(F)c(O)c(F)c8F)CC7)nc6c5)cn4)CC3)C2)cc1N1CCC(=O)NC1=O [Example 58, trifluoroacetate salt] : 73

Huh7_HIBIT-HSD17β13_DC50 GMean Asymptote Maximum measured on O=C1CCN(c2cc(C(=O)N3CCC(CN4CCN(c5ncc(-c6ccc7cn([C@H]8CC[C@H](CNC(=O)c9cc(F)c(O)c(F)c9F)CC8)nc7c6)cn5)CC4)CC3)ccc2Cl)C(=O)N1 [Example 89, formate salt] = 77

Huh7_HIBIT-HSD17β13_DC50 GMean Asymptote Maximum measured on Cn1c(=O)n(C2CCC(=O)NC2=O)c2ccc(CN3CCOC4(C3)CN(c3ncc(-c5ccc6cn([C@H]7CC[C@H](CNC(=O)c8cc(F)c(O)c(F)c8F)CC7)nc6c5)cn3)C4)cc21 (mixture of isomers) [Example 78, trifluoroacetate salt] = 78

Huh7_HIBIT-HSD17β13_DC50 GMean Asymptote Maximum measured on Cn1c(=O)n(C2CCC(=O)NC2=O)c2ccc(CCCN3C[C@H]4CN(c5ccc6cn([C@H]7CC[C@H](CNC(=O)c8cc(F)c(O)c(F)c8F)CC7)nc6c5)C[C@@H]4C3)cc21 (mixture of isomers) [Example 118, trifluoroacetate salt] = 78
